Each entry below carries its recorded microsomal CLint at 2 μM.
assay: Liver microsomes stability, mouse; conditions: male, mouse, microsomes
Express the result in µL/min/mg but write the number alone.

Previously resolved entries follow.
| CHEMICAL SMILES | RESULT UNITS | OBSERVED VALUE |
| --- | --- | --- |
| CCCCC/C=C\C/C=C\CCCCCCCC(=O)n1cc(C[C@H]2CCCN2C)c2cc(OC)ccc21 | µL/min/mg | 12.1 |
| CCCCC/C=C\C/C=C\CCCCCCCC(=O)n1cc(CCN(C)C)c2ccccc21 | µL/min/mg | 1.61 |

Task item: Read the entry "[2H]C([2H])(c1cn(C(=O)CCCCCCC/C=C\C/C=C\CCCCC)c2ccccc12)[C@H]1CCCN1C([2H])([2H])[2H]" and write its reported microsomal CLint at 2 μM.
Reply: 26.9

Task item: Read the entry "CCCCC/C=C\C/C=C\CCCCCCCC(=O)n1cc(C[C@H]2CCCN2C)c2ccccc21" and write its reported microsomal CLint at 2 μM.
Reply: 17.7

###

molecular target: human 5-HT2A receptor (Homo sapiens (Human)); assay: Human 5-HT2A radioligand binding assay ([3H]-ketanserin)
ASSAY ENDPOINT: IC50

Task item: Read the entry "CCCCC/C=C\C/C=C\CCCCCCCC(=O)n1cc(CCN(C)C)c2cc(OC)ccc21" and write its reported IC50.
Reply: < 2000 nM

Task item: Read the entry "[2H]C([2H])([2H])N(C([2H])([2H])[2H])C([2H])([2H])C([2H])([2H])c1cn(C(=O)CCCCCCC/C=C\C/C=C\CCCCC)c2cccc(F)c12" and write its reported IC50.
Reply: 2000 to 5000 nM

Task item: Read the entry "[2H]C([2H])(c1cn(C(=O)CCCCCCC/C=C\C/C=C\CCCCC)c2ccccc12)[C@H]1CCCN1C([2H])([2H])[2H]" and write its reported IC50.
Reply: < 2000 nM

Task item: Read the entry "CCCCC/C=C\C/C=C\CCCCCCCC(=O)n1cc(C[C@H]2CCCN2C)c2ccccc21" and write its reported IC50.
Reply: < 2000 nM

Task item: Read the entry "[2H]C([2H])(c1cn(C(=O)CCCCCCC/C=C\C/C=C\CCCCC)c2ccc(OC)cc12)[C@H]1CCCN1C([2H])([2H])[2H]" and write its reported IC50.
Reply: < 2000 nM

Task item: Read the entry "[2H]C([2H])([2H])Oc1ccc2c(c1)c(C([2H])([2H])C([2H])([2H])N(C([2H])([2H])[2H])C([2H])([2H])[2H])cn2C(=O)CCCCCCC/C=C\C/C=C\CCCCC" and write its reported IC50.
Reply: < 2000 nM

Task item: Read the entry "[2H]c1c([2H])c([2H])c2c(c1[2H])c(CCN(C([2H])([2H])[2H])C([2H])([2H])[2H])c([2H])n2C(=O)CCCCCCC/C=C\C/C=C\CCCCC" and write its reported IC50.
Reply: 2000 to 5000 nM

Task item: Read the entry "CCCCC/C=C\C/C=C\CCCCCCCC(=O)n1cc(C[C@H]2CCCN2C)c2cc(OC)ccc21" and write its reported IC50.
Reply: < 2000 nM

###

assay: Liver microsomes stability, dog; details: Dog, With NADPH, 60 min
ASSAY ENDPOINT: Remaining Percentage (%)
Express the result in % but write the number alone.

| CHEMICAL SMILES | Remaining Percentage (%) |
| --- | --- |
| CCCCC/C=C\C/C=C\CCCCCCCC(=O)n1cc(C[C@H]2CCCN2C)c2ccccc21 | 42.66 |
| [2H]C([2H])(c1cn(C(=O)CCCCCCC/C=C\C/C=C\CCCCC)c2ccccc12)[C@H]1CCCN1C([2H])([2H])[2H] | 39.08 |
| CCCCC/C=C\C/C=C\CCCCCCCC(=O)n1cc(CCN(C)C)c2ccccc21 | 56.62 |

Task item: Read the entry "CCCCC/C=C\C/C=C\CCCCCCCC(=O)n1cc(C[C@H]2CCCN2C)c2cc(OC)ccc21" and write its reported Remaining Percentage (%).
Reply: 35.40
